Overview of reported pIC50 across a group of compounds:
system: SIHA (cervix carcinoma); assay: Cytotoxicity (sulphorhodamine B), cancer cell line, Table 1B; type: cell-based; details: Homo sapiens, SiHa, 72 h
Scale note: pIC50 = -log10(concentration in M).

Reference set (2 entries):
Task: Quick check: pIC50 of CC(=O)O[C@H]1C(=O)[C@@]2(C)[C@H]([C@H](OC(=O)c3ccccc3)[C@]3(O)C[C@H](OC(=O)[C@H](OC(=O)OCCSc4ccccc4)[C@@H](NC(=O)c4ccccc4)c4ccccc4)C(C)=C1C3(C)C)[C@]1(OC(C)=O)CO[C@@H]1C[C@@H]2O ?
Output: 5.00

Task: Same question, CC(=O)O[C@H]1C(=O)[C@@]2(C)[C@H]([C@H](OC(=O)c3ccccc3)[C@]3(O)C[C@H](OC(=O)[C@H](OC(=O)CS(=O)(=O)CC(=O)O)[C@@H](NC(=O)c4ccccc4)c4ccccc4)C(C)=C1C3(C)C)[C@]1(OC(C)=O)CO[C@@H]1C[C@@H]2O this time
Output: 4.00

Pending compound:
Task: # pIC50 lookup, item CC(=O)O[C@H]1C(=O)[C@@]2(C)[C@H]([C@H](OC(=O)c3ccccc3)[C@]3(O)C[C@H](OC(=O)[C@H](O)[C@@H](NC(=O)c4ccccc4)c4ccccc4)C(C)=C1C3(C)C)[C@]1(OC(C)=O)CO[C@@H]1C[C@@H]2O
Output: 5.00

Recorded values, source patent US5817840A.
